# Tested on: HL-60(TB) leukemia
# Assay details: NCI tumour cell line growth inhibition, 48 h
Metric name: log10 of TGI (log10 of the value in µM)
On a log10 scale: recorded TGI, unit µM.

Reference set (8 entries):
FC(F)(F)c1nc(-c2ccccc2Cl)[nH]c1C(F)(F)F    0.09
Brc1cccc(-c2cc(-c3ccc4c(c3)OCCO4)[nH]n2)c1    1.24
CC(C)(C)c1cc(O)c(O)c(C(C)(C)C)c1    0.83
C[C@@H]1CC[C@@H]2[C@@H]1[C@H](OC(=O)/C=C/c1ccccc1)[C@]1(c3ccccc3)C[C@@H](OC(=O)CO)[C@@]2(C)O1    1.73
C=CCN(CC=C)Cn1c(=S)sc2ccccc21    1.61
O=C(c1ccc2ccccc2c1)c1c(C(F)(F)F)n([O-])c2cc(Cl)c(Cl)cc2[n+]1=O    0.59
O=C(CSc1nc2ccc([N+](=O)[O-])cc2[nH]1)Nc1ccc(F)c(Cl)c1    0.80
Cc1nn(-c2ccc(F)cc2)c2ncnc(Nc3ccc(NC(=O)Nc4ccc(Cl)c(C(F)(F)F)c4)cc3)c12    0.91

# per-item lookup of log10 of TGI; items listed below
1. CC(CO)(CO)N=Cc1cc(I)cc(I)c1O
2. COc1cc2c(cc1OCCCCCOc1cc3c(cc1OC)C(=O)N1CCC[C@H]1C(=O)N3)N=C[C@@H]1CCCN1C2=O
3. O=C(O)c1ccc(NC(c2ccccc2)c2ccc3cccnc3c2O)cc1 (centres undefined)
4. CCOC(=O)c1cc(=C2\CCN(CC(C)CC)C2=S)/c(=C(/O)CC)[nH]1 (centres undefined)
5. N#Cc1c(N)[nH]c(=S)c(C#N)c1-c1cccc(Cl)c1

[out]
1. 1.47
2. 0.18
3. 1.02
4. 1.44
5. 1.81
